From: patent US20230391826A1

assay system: T1, EphA2 ligand binding domain (EphA2 LBD), residues 28-200 (UniProt P29317 28-200)
T1 construct: range 28-200; Expressed in E. coli; also called soluble EphA2 LBD; soluble monomeric EphA2 LBD
T1 sequence (P29317 other isoform, or with tags, fused parts or gaps limits assumed, form in doubt): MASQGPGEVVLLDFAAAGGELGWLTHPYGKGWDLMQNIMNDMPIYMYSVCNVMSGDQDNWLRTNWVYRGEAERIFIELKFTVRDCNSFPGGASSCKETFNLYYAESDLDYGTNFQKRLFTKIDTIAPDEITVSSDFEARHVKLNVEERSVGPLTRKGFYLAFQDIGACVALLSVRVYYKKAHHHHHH
protocol notes: ITC, EphA2 LBD (200-250 µM) titrated into 10-12.5 µM peptide; single titration shown
pKd: −log10 of the molar value. Where no end group is shown, it is not given here.
quantity name: pKd

{"binder": "CGAWLAYPDSVPYR (also: homodimer: N-terminal Cys of two chains joined by disulfide, N-terminally disulfide-linked homodimer made from monomer (15*); also called dimer (4)) [CGA-WLA-YR dimer (N-ter)]", "quantity name": "pKd", "result value": 6.99}
